Tested on: Escherichia coli
testName: In vitro synergistic activity against Escherichia coli C600N + (TEM-1)
Assay type: functional
reportedEndpoint: MIC
Report field: quantity (unit follows the number).

Previously resolved entries follow.
CCN1CCN(C(=O)NC(C(=O)N[C@@H]2C(=O)N3[C@@H]2SC(C)(C)[C@@H]3C(=O)[O-])c2ccccc2)C(=O)C1=O.C[C@]1(Cn2ccnn2)C(C(=O)[O-])N2C(=O)C[C@H]2S1(=O)=O.[Na+].[Na+] (some centres undefined); 4 µg/mL
CC(C)(O/N=C(\C(=O)N[C@@H]1C(=O)N2C(C(=O)[O-])=C(C[n+]3ccccc3)CS[C@H]12)c1csc(N)n1)C(=O)O [CEFTAZIDIME]; 0.12 µg/mL
C[C@@H](O)[C@H]1C(=O)N2C(C(=O)O)=C(SCCNC=N)C[C@H]12 [IMIPENEM ANHYDROUS]; 0.12 µg/mL

# context switch: different compound, same MIC
Ask | Consider the compound shown here: CCN1CCN(C(=O)NC(C(=O)N[C@@H]2C(=O)N3[C@@H]2SC(C)(C)[C@@H]3C(=O)[O-])c2ccccc2)C(=O)C1=O.C[C@]1(COC(=O)Cc2ccc(O)c(O)c2)[C@H](C(=O)[O-])N2C(=O)/C(=C/c3ccccn3)C2S1(=O)=O.[Na+].[Na+] (some centres undefined) What is its recorded MIC?
Reply | 2 µg/mL

----------
System: Escherichia coli
testName: In vitro synergistic activity against Escherichia coli C600N + (TEM-10)
Type: functional
Listed here: items and their measured MIC.
Answer with a number only, understood to be in µg/mL.

CC(C)(O/N=C(\C(=O)N[C@@H]1C(=O)N2C(C(=O)[O-])=C(C[n+]3ccccc3)CS[C@H]12)c1csc(N)n1)C(=O)O [CEFTAZIDIME]; 64
CCN1CCN(C(=O)NC(C(=O)N[C@@H]2C(=O)N3[C@@H]2SC(C)(C)[C@@H]3C(=O)[O-])c2ccccc2)C(=O)C1=O.C[C@]1(COC(=O)Cc2ccc(O)c(O)c2)[C@H](C(=O)[O-])N2C(=O)/C(=C/c3ccccn3)C2S1(=O)=O.[Na+].[Na+] (some centres undefined); 2
C[C@@H](O)[C@H]1C(=O)N2C(C(=O)O)=C(SCCNC=N)C[C@H]12 [IMIPENEM ANHYDROUS]; 0.12

Now let's try a different one.
Ask | Suppose we examine the compound CCN1CCN(C(=O)NC(C(=O)N[C@@H]2C(=O)N3[C@@H]2SC(C)(C)[C@@H]3C(=O)[O-])c2ccccc2)C(=O)C1=O.C[C@]1(Cn2ccnn2)C(C(=O)[O-])N2C(=O)C[C@H]2S1(=O)=O.[Na+].[Na+] (some centres undefined) ; what MIC value has been reported?
Reply | 2
